experimentDescription: Ocular tissue distribution and pharmacokinetics, 7.5 and 15 mg/kg oral, pigmented Dutch Belted rabbits (Example 7)
Type: in vivo
measurementConditions: Dutch Belted, rabbit, choroid-RPE, oral, […], DB rabbits, Day 15, […] BID, 168 hr; read-out: Mean Choroid-RPE Concentration
measuredProperty: concentration at 168 h (ng/g)
Enter your answer as a number in ng/g; do not include the unit.

Record request: concentration at 168 h value, item CC(=O)c1nn(CC(=O)N2C[C@H](F)C[C@H]2C(=O)Nc2cccc(Br)n2)c2ccc(-c3cnc(C)nc3)cc12 [Compound 1]
183

* * *

experimentDescription: Ocular tissue and plasma pharmacokinetics, 15 mg/kg oral, New Zealand White rabbits (Example 3/5)
Type: in vivo
measurementConditions: New Zealand White, iris-ciliary body; NZW rabbit, 15 mg/kg single oral dose, Day 1, 1 h
measuredProperty: concentration at 1 h (ng/g)
Enter your answer as a number in ng/g; do not include the unit.

Record request: concentration at 1 h value, item "CC(=O)c1nn(CC(=O)N2C[C@H](F)C[C@H]2C(=O)Nc2cccc(Br)n2)c2ccc(-c3cnc(C)nc3)cc12"
117

Values were extracted from patent US20230126447A1.
